Test system: Leishmania donovani
Experiment: Leishmania intramacrophage assay
Format: functional, organism-based
Design: scale not given: in the data most compounds retested in dose-response had high values
Details: 30.3 µM; […]
Hit rate of the full screen: of about 69,000 compounds, about 1,000 (1.4%) showed an effect of 50% or more. This excerpt belongs to a sample that is enriched for strong results.
Exercise: for every item that follows, state its recorded Percent Effect.
Respond with the bare value in %.

# input molecule: Cc1noc(C)c1CN1CCc2ncnc(-c3cccnc3)c2CC1.O=C(O)C(F)(F)F.O=C(O)C(F)(F)F ; wanted: its Percent Effect 26.97

Also, O=C(Nc1c(N2CCCC2)cccc1N1CCCC1)c1cnccn1 please. 2.563

Quick one: CN1CCN([C@@H]2CCN(CC3=Cc4cc(Cl)ccc4OC3)C[C@H]2O)CC1 96.13

Also CCn1c(N)nc2cc(C(=O)NCCc3ccncc3)cnc21 ? 62.87

Could you do the same for CC(C)(C)c1ncc(C(=O)N2CCC(N3CCSCC3)CC2)c(O)n1 , please? -1.593

What do we get for COc1cc(Cl)c(NCc2c(C)noc2C)cc1OC ? 14.57

// repeat for CCCc1noc(C2CC(=O)N(CCN(C)C)C2)n1 (stereo not drawn) and report 24.39

Same again, this time with O=C(Nc1cccc(CN2CCC(CO)CC2)c1)c1cc(Cl)c[nH]1 28.48

----------
Test system: Leishmania donovani
Experiment: Leishmania intramacrophage assay
Assay type: functional, organism-based
Design: scale not given: in the data most compounds retested in dose-response had high values
Conditions: 30.3 µM; […]
Among all 69,000 compounds or so, about 1,000 (1.4%) showed an effect of 50% or more. The entries come from a sample that favours strong results as a whole.
READOUT_LABEL: Percent Effect (%)
All answers are understood in %, so give the number only.

What value of Percent Effect has been reported for the following molecule? COc1ccc(CCNC(=O)CN2CCOCS2(=O)=O)cc1 0.9024

Try the molecule COCCN1CCC(CN(CC2CCCO2)C(=O)Cc2cccs2)CC1 (stereo not given) 8.21

Same question for CC(C)Nc1nc(N2CCCC2)nc2c1CN(c1ncc(F)cn1)CC2 please. 60.7

Okay, and CN(C)c1ccc(C2CC(=O)Nc3c2cnn3Cc2ccco2)cc1 (stereo not given) ? 7.757

Also CC(=O)NCc1nnn2c1CN(c1ncc(C)cn1)CCC2 , if possible. 22.68

And then OC(CNC1CCOCC1)c1cccc(OCc2ccccc2)c1 (stereo not given) , what is it? 10.21

Similarly, O=C(O)C(F)(F)F.O=C(O)C(F)(F)F.O=C1NC2(CCN(Cc3cccs3)CC2)CC1c1ccncc1 (stereo not given) ? 15.69

// repeat for CCN1CCC(CC(=O)NCC(O)c2cccc(OC)c2)CC1 (stereo not given) and report 23.15

Note, next up: Cc1noc(CN(C)CC2CCN(CCO)CC2)n1 19.09

Proceed to CCCS(=O)(=O)CCN1CCOC(c2ccsc2)C1 (stereo not given) 22.47

----------
Please respond with reported Percent Effect for every item in the list.
Test system: Leishmania donovani
Assay: Leishmania intramacrophage assay
Type: functional, organism-based
Parameters: scale not given: in the data most compounds retested in dose-response had high values
Settings: 30.3 µM; […]
In all, about 69,000 compounds went through this assay and about 1,000 (1.4%) showed an effect of 50% or more. The list comes from a sample in which strong results are over-represented; it also holds close analogues and randomly drawn compounds.
Report the figure in % without appending any unit label.

I am curious: what Percent Effect value has been reported for CCOCC1CCN(C(=O)Nc2ccc(-c3csnn3)cc2)C1 (centres undefined) ? -4.056

# repeat for CSCCCN1CCN(c2ccc(Cl)cn2)CC1 30.03

Lookup Cc1cnc(C)c(N2CCCC(C/C=C/c3ccccc3)(C(=O)O)C2)n1 (centres undefined) 12.4

Query O=C(O)c1ccccc1C1CCN(Cc2ccc(-c3cc[nH]n3)o2)C1 (centres undefined) next 8.649

Same question for COCCN1CCN(CC(O)c2ccc(OC(F)(F)F)cc2)CC1 (centres undefined) please. 52.28

And then Cc1ccccc1CC1(CO)CCCN(c2ncnc3sccc23)C1 (centres undefined) , what is it? 67.14

CC(C)c1ccc(S(=O)(=O)NC2CCN(CC(F)(F)F)C2)cc1 (centres undefined) , same question. 20.88

# iterate: COc1cc(F)cc(CNC(=O)Nc2ccn(CC(F)F)n2)c1 16

Next record, please: C=C1C(C)(C)[C@H]2CC[C@]1(C(=O)N1CCC(Cn3cc(CO)nn3)CC1)C2 -11.33

Note, next up: O=C1[C@@H]2CN(Cc3cc4ccccc4o3)C[C@]2(C(=O)O)CN1CC1CC1 10.9

Quick one: CCC(CO)N(Cc1ccco1)C(=O)c1ccccc1SC (centres undefined) 54.97

Try the compound C[C@@H]1CN(Cc2cccc(F)c2)C[C@]12CCN(Cc1cccnc1)C2=O.O=C(O)C(F)(F)F.O=C(O)C(F)(F)F -0.6911

Continue with OCCN1CCN(CC(O)c2ccc(OC(F)(F)F)cc2)CC1 (centres undefined) 19.69

And the next one, Cc1nc(CNC(=O)N2CCN(c3ccc(Cl)cn3)CC2)no1 ? -6.718

Origin of values: ChEMBL document CHEMBL3988442
